src = the RNAGym collection of RNA variant scans (doi:10.1126/science.aae0568)

B1: tRNA (parent)
chain: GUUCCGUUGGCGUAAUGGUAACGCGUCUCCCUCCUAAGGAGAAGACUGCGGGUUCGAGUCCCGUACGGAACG

variants of: B1; test: yeast fitness relative to wild type (ratio to wild type); higher = fitter; tRNA-Arg(CCU), competitive growth, 37 C, YPD
Fewer inactive variants are shown than the library holds.
recorded endpoint: yeast fitness

Q: Fill in: yeast fitness of GUUCCGUUGGCGUAAUGGUAACGCGUCUCCCUCCUAAGGAGAAGACUGCGGGUUUGAGCCCCGUACGGAACG [C55U U59C] is ___
A: 0.683

Q: # repeat for GUUCCGUUGACGUAAUGGUAACGCGGCUCCCUCCUAAGGAGAAGACUGCGGGUUCGAGUCCCGUACGGAACG [G10A U26G]
A: 0.681

Q: # repeat for GUUCCGUUGGCGUAAUGGUAGCGCGUCUCCCUCCUAAGGAAAAGACUGCGGGUUCGAGUCCCGUACGGAACG [A21G G41A]
A: 0.995

Q: # repeat for GUUCCGUUGGCGUCUUGGUAACGCGUCUCCCUCCUAAGGAGAAGACUGCGGGUUCGAGUCCGGUACGGAACG [A14C A15U C62G]
A: ≤ 0.5

Q: # repeat for GUUCCGUUGGCGUAAUGGUCACGCGUCUCCCUCCAGAGGAGAACACUGCGGGUUCGAGUCCCGUACGUAACG [A20C U35A A36G G44C G68U]
A: ≤ 0.5

Q: # repeat for GUUCCGUUGGCGUAGUGGUAACGCGUCUCCCUCCUAAGGAGAAGACUGCGGGUUCGAGUCCUGUACGGCACG [A15G C62U A69C]
A: 0.829

Q: # repeat for GUUUCGUUGGCGUAAUGGUAAUGCGUCUCCCUCCUAAGGAGAAGACUGCGGGUUCGAGUCCUGUACGGAACG [C4U C22U C62U]
A: 0.62

Q: # repeat for GUUCCGUUGGCGUAAUGGUAACGCGUUUCCCUCCAAAGGAGAAGACUGCGGGUUCGAGUCCCGUACGGAACG [C27U U35A]
A: 0.771

Q: # repeat for GUUCCGUUGGCGUAAUGGUAACGCGUCUCCCUCCUAAGGAGAAGACUGCGGGUUCGAUUCCCGUAAGGACCG [G58U C66A A70C]
A: 0.665

Q: # repeat for GAUCCGUUGGCGUAGUGGUAACGUGUCUCCCUCCUAAGGAGAAGACUGCGGGUCCGAGUCCCGUACGGAACG [U2A A15G C24U U54C]
A: 0.726

Q: # repeat for GUUCCGUUGGCGUAAUGGUAACGCGUCUCCCUCCUAAGGAGAAGACUGCGGGUUCGGGUCCCGUACGGCACG [A57G A69C]
A: 0.799

Q: # repeat for GUUCCGAUGGCGUAAUGGUAAGGCGUCUCUCUCCUAGGGAGAAGACUGCGGGUUAGAGUCCCGUACGGAACG [U7A C22G C30U A37G C55A]
A: ≤ 0.5

Q: # repeat for GUCCCGUUGGCGUAAUGGUAACGCGUCUCCCUCCUAAGAAGAAGACUGCGGGUUCGUGUCCGGUACGGAACG [U3C G39A A57U C62G]
A: ≤ 0.5

Q: # repeat for GUUCCGUUGGCGUAAUGGUAACGCGUCUCCCUCCUAGGGAGAAGACUGCGGGUUCGAGUUCCGUACGGAUCG [A37G C60U A70U]
A: ≤ 0.5

Q: # repeat for GUUCCGUUCGCGUAGUGGUAGCGCGUCUCCCUCCUAAGGAGAAGACUGGGGGUUCGAGUACCGUACGGAACG [G9C A15G A21G C49G C60A]
A: ≤ 0.5

Q: # repeat for GUUUCGUUGGCGUAAUGGUAACGCGUCUCCCUCCUAAGGAGGAGACUGCGGGUUCGAGUCCCGUACGGAACG [C4U A42G]
A: 0.868

Q: # repeat for GUUACGUUGGCGUAAUGGUAACGCGUCUCUCUCCUAAGGAGAAGACUGCGGGUUUGAGUCCCGUACGGAACG [C4A C30U C55U]
A: ≤ 0.5

Q: # repeat for GUUCCGUUGGCGUAAUGGUAACGCGUCUCCCUCCUAAGGAGAUGACUGCGGGAUCGAGUCCCGUACGGAACG [A43U U53A]
A: 0.666

Q: # repeat for GUUCCGUUGGCGUAAUGAAAACGCGUCUCCCUCCUAAGGAGAAGACUGCGGGUUCGAGUCUCGUACGGAACG [G18A U19A C61U]
A: 0.61

Q: # repeat for GUUCCGUUGGUGUGAUGGUAACGGGUUUCCCUCCUAAGGAACAGACUGCGGGUUCGAGUCCCGUACCGAACG [C11U A14G C24G C27U G41A A42C G67C]
A: ≤ 0.5

Q: # repeat for GUUCCGUUGGCGUAAUGGUAACGCGUCUCCCUCCUAACGAGAAGCCUGCGGGUUCGCGUCCCGUACGGAUCG [G38C A45C A57C A70U]
A: ≤ 0.5

Q: # repeat for GUUUCGUUGGCGUAAUGGUAACGAGUCUCCCUCCUAAGGAGAGGACUGCGGGUUCGAGUCCCCUACGGAACG [C4U C24A A43G G63C]
A: ≤ 0.5
